# Study Target: Histamine H3 receptor (UniProt Q9Y5N1)
# Protocol Summary: Binding assay for human or rat histamine H3 receptor ([3H] R-α-methylhistamine)
# Run Parameters: [3H] R-α-methylhistamine 3.0 nM; rat brain frontal cortex or recombinant human receptor in CHO cells (not specified which)
pKi: −log10 of the molar value. Counter-ions that a name gives are not always drawn.
Measured Property: pKi

(1) CC(C)C(=O)N1CCc2nc(OC3CCN(C4CCC4)CC3)sc2C1.O=C(O)C(O)C(O)C(=O)O [Example 22, tartrate]
(2) FC(F)(F)c1ccc(N2CCc3nc(OC4CCN(C5CCC5)CC4)sc3C2)cn1 [Example 23]
(3) O=C(C1CC1)N1CCc2nc(OC3CCN(C4CC4)CC3)sc2C1 [Example 10, tartrate]
(4) NC(=O)c1ccc(N2CCc3nc(OC4CCN(C5CCC5)CC4)sc3C2)nc1 [Example 31]
# sort list by recorded pKi, greatest to least Arrange the labels as the request states and list them.
2, 4, 3, 1
